Test system: Influenza virus strain A/CA/04/2009 (H1N1)
Assay: organism not typed
Type: cell-based
Conditions: MDCK, 72 h, read-out: H1N1 EC50 (@ 50% Via)
pEC50: −log10 of the molar value.
READOUT_NAME: pEC50

MOLECULE: COc1ccc(C2NC(=O)NC3=C2CCc2ccccc23)cc1OC (centres unmarked)
READOUT_NAME: pEC50
READOUT_QUALIFIER: =
RECORDED_VALUE: 4.41
//
MOLECULE: COc1cccc2c1CCC1=C2NC(=O)NC1c1ccc(C)c(C)c1 (centres unmarked)
READOUT_NAME: pEC50
READOUT_QUALIFIER: =
RECORDED_VALUE: 4.77
//
MOLECULE: COc1ccc(C2NC(=O)NC3=C2CSc2ccccc23)cc1Br (centres unmarked)
READOUT_NAME: pEC50
READOUT_QUALIFIER: =
RECORDED_VALUE: 6.45
//
MOLECULE: COc1ccc(C2NC(=O)NC3=C2CN(C(=O)CSCC(O)CO)c2ccccc23)cc1Br (centres unmarked)
READOUT_NAME: pEC50
READOUT_QUALIFIER: =
RECORDED_VALUE: 5.51
//
MOLECULE: CCOc1cccc(C2NC(=O)NC3=C2CCc2ccccc23)c1 (centres unmarked)
READOUT_NAME: pEC50
READOUT_QUALIFIER: <
RECORDED_VALUE: 4.30
